- SYSTEM: RXRα (Homo sapiens)
- ASSAY_NAME: Retinoid activation assay, RXRα (Schneider SL-3 cells, luciferase reporter)
- TEST_CONTEXT: read-out: Activation EC50 RXR α
QUANTITY: pEC50
Recall that pEC50 is obtained by taking minus log10 of the concentration measured in molar.

Please review the following examples before continuing.
- MOLECULE: "CC1=C(/C=C/c2sccc2/C=C/C(C)=C/C(=O)O)C(C)(C)CCC1 [Compound 5]"
  SYSTEM: "RXRα (Homo sapiens)"
  pEC50: 9.10
- MOLECULE: "CC(/C=C/c1sccc1-c1ccc2c(c1)C(C)(C)CCC2(C)C)=C\\C(=O)O [Compound 9]"
  SYSTEM: "RXRα (Homo sapiens)"
  pEC50: 8.60

Now take the following molecule into account.
Input: # return recorded pEC50 for entry CCc1cc2c(cc1\C(C)=C/C=C/C(C)=C/C(=O)O)CCCC2C (racemic) [Compound 11]
Output: 8.68

====

- SYSTEM: RXRγ (Homo sapiens, UniProt P48443)
- Sequence (P48443 1-463): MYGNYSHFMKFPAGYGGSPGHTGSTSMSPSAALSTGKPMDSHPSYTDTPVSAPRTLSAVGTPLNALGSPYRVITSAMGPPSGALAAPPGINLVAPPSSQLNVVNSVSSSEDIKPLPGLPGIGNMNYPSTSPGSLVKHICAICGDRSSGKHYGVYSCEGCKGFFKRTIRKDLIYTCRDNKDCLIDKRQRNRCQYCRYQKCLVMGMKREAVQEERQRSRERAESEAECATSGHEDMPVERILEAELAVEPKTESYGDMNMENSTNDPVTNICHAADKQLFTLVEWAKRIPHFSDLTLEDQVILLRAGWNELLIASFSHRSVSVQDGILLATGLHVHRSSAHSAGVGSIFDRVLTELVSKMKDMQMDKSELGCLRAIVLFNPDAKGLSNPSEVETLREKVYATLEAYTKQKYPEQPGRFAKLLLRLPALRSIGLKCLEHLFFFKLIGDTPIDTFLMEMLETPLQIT
- ASSAY_NAME: Retinoid activation assay, RXRγ (Schneider SL-3 cells, luciferase reporter)
- TEST_CONTEXT: read-out: Activation EC50 RXR γ
QUANTITY: pEC50
Recall that pEC50 is obtained by taking minus log10 of the concentration measured in molar.

- COMPOUND: "CC1=C(/C=C/C2=C(/C=C/C(C)=C/C(=O)O)CCC2)C(C)(C)CCC1"
  pEC50: 7.30
- COMPOUND: "CC(/C=C/[C@@H]1C[C@@H]1c1ccc2c(c1)C(C)(C)CCC2(C)C)=C\\C(=O)O (racemic)"
  pEC50: 7.30
- COMPOUND: "C/C(=C/C=C/C(C)=C/C(=O)O)c1cc2c(cc1C)C(C)(C)CCCC2"
  pEC50: 6.40

Input: # return recorded pEC50 for entry `CC(/C=C/C1=C(c2ccc3c(c2)C(C)(C)CCC3(C)C)CCCC1)=C\C(=O)O`
Output: 6.85

====

Catalogue of EC50 readings, one per entry.
- SYSTEM: PPARγ/RXRα Heterodimer (Homo sapiens)
- Construct: co-transfected with plasmids expressing the full length RXR heteropartner receptor
- Sequence (P19793 whole entry): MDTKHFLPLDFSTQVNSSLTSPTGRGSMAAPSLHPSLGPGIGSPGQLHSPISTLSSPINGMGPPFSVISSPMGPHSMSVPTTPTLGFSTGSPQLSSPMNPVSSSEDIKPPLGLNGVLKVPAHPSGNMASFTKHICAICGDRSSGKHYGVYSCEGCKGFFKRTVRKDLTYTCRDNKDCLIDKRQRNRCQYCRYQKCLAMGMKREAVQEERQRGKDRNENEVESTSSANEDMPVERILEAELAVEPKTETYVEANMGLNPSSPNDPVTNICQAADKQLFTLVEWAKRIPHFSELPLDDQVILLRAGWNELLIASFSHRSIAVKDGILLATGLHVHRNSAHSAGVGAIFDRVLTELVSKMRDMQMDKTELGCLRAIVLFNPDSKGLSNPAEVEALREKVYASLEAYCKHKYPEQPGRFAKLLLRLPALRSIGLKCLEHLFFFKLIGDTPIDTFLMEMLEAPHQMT
- Sequence (P37231 whole entry partner): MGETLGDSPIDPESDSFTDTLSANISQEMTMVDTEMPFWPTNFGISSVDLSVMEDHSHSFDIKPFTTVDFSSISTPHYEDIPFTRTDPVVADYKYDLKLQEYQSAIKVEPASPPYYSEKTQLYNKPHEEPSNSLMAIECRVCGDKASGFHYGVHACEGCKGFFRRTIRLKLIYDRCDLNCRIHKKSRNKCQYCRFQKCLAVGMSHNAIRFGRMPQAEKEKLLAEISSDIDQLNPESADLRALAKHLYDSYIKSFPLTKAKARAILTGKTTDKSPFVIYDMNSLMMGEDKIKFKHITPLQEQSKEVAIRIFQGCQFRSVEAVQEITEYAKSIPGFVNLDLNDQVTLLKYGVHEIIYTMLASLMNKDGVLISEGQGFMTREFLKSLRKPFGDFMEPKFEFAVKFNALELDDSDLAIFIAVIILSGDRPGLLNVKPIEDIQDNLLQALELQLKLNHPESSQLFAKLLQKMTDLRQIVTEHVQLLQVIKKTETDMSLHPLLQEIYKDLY
- ASSAY_NAME: PPARγ/RXRα heterodimer activation (transactivation) assay

Please review the following examples before continuing.
- COMPOUND: "CC1=C(C#CC2=C(/C=C/C(C)=C/C(=O)O)CCCCC2)C(C)(C)CCC1 [Compound 18]"
  QUANTITY: "EC50"
  REPORTED_VALUE: "> 10000 nM"
- COMPOUND: "CCCOc1cc2c(cc1[C@@H]1C[C@@H]1/C=C/C(C)=C/C(=O)O)C(C)(C)CCC2(C)C (racemic) [Compound 22]"
  QUANTITY: "EC50"
  REPORTED_VALUE: "> 30 nM"
- COMPOUND: "CC1=C(/C=C/c2sccc2/C=C/C(C)=C/C(=O)O)C(C)(C)CCC1 [Compound 5]"
  QUANTITY: "EC50"
  REPORTED_VALUE: "1.5 nM"
- COMPOUND: "CCCCOc1c([C@@H]2C[C@@H]2/C=C/C(C)=C/C(=O)O)cc(C(C)(C)C)cc1C(C)(C)C (racemic) [Compound 16]"
  QUANTITY: "EC50"
  REPORTED_VALUE: "> 10000 nM"
- COMPOUND: "C/C(=C/C=C/C(C)=C/C(=O)O)c1cc2c(cc1C)C(C)(C)CCCC2 [Compound 13]"
  QUANTITY: "EC50"
  REPORTED_VALUE: "23 nM"

Input: # return recorded EC50 for entry CCC1(CC)CCC(C)(C)c2cc(\C(C)=C/C=C/C(C)=C/C(=O)O)ccc21 [Compound 24]
Output: 3.5 nM

Origin of measurements: patent US20080255206A1
